# system_under_test: hERG K+ channel (Homo sapiens)
# Construct: expressed in transfected cells; host or cells: CHO (Chinese hamster ovary)
# Sequence (Q12809 whole entry): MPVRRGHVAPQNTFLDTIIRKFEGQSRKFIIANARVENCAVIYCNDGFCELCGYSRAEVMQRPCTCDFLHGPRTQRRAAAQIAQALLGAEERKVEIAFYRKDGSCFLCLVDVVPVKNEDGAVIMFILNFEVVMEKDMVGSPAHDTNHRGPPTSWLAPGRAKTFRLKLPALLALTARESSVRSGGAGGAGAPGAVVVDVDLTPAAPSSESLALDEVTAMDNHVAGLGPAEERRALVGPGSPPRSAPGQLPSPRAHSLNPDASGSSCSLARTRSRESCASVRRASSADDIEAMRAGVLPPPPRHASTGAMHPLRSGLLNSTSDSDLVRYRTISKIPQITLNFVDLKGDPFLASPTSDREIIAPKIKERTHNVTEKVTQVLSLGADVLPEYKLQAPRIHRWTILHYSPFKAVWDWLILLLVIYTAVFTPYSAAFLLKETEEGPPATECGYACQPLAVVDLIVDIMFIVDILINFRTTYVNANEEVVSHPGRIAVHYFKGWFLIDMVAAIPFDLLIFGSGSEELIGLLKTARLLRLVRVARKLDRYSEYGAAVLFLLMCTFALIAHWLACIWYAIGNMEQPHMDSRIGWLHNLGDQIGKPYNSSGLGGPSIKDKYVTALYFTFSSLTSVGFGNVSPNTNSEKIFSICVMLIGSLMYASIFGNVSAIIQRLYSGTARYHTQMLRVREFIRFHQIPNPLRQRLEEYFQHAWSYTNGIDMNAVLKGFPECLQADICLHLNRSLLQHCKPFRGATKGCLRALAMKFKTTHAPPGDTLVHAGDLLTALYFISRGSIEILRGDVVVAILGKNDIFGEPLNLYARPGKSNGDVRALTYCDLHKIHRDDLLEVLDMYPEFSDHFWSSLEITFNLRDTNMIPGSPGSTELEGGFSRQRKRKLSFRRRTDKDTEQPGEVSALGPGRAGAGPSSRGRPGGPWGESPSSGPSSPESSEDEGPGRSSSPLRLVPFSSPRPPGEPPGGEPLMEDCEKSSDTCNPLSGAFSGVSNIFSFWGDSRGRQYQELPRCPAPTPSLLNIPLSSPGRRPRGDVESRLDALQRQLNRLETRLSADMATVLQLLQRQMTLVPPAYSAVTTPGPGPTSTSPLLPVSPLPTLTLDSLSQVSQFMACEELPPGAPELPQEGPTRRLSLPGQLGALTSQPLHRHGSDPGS
# test: hERG channel inhibition assay (patch-clamp, CHO-hERG cells)
# Format: cell-based
# condition_details: safety ratio
Items are presented alongside their recorded hERG IC20/TLR8 IC50.
assay_metric: hERG IC20/TLR8 IC50

# compound, experimental_value
rows = [
    ("Cc1cc(N2CCC(c3ncc(N4CCNCC4)cc3C)CC2)c2cnn(C)c2n1 [Example 7]", 175.9),
    ("Cc1cc(N2CC[C@H](c3ccc(N4CC5(CNCCO5)C4)cn3)[C@@H](C)C2)c2cnn(C)c2n1 [Example 38]", 472.7),
    ("COC[C@H]1CN(c2ccc([C@H]3CCN(c4cc(C)nc5c4cnn5C)C[C@@H]3C)nc2)CCN1 [Example 37]", ">769.2"),
]

###

Catalogue of compounds with associated hERG IC20/TLR8 IC50
# system_under_test: hERG K+ channel (Homo sapiens)
# Construct: expressed in transfected cells; host or cells: CHO (Chinese hamster ovary)
# test: hERG channel inhibition assay (patch-clamp, CHO-hERG cells)
# Format: cell-based
# condition_details: safety ratio

# compound, reading_qualifier, hERG IC20/TLR8 IC50
records = [
    ("Cc1cc(N2CCC(c3ncc(N4CCNCC4)nc3C)CC2)c2cnn(C)c2n1 [Example 12]", "=", 233.3),
    ("CO[C@@H]1CN(c2ccc([C@H]3CCN(c4cc(C)nc5c4cnn5C)C[C@@H]3C)nc2)C[C@H]1N [Example 36]", ">", 476.2),
    ("Cc1cc(N2CCC(c3ccc(N4CCNCC4)cc3)CC2)c2cnn(C)c2n1 [Example 1]", "=", 333.3),
    ("CO[C@@H]1CN(c2cnc([C@@H]3CCN(c4cc(C)nc5c4cnn5C)C[C@H]3C)c(C)c2)C[C@H]1N [Example 26]", ">", 714.3),
]

###

# system_under_test: human TLR8 (Homo sapiens)
# Sequence (Q9NR97 27-1041): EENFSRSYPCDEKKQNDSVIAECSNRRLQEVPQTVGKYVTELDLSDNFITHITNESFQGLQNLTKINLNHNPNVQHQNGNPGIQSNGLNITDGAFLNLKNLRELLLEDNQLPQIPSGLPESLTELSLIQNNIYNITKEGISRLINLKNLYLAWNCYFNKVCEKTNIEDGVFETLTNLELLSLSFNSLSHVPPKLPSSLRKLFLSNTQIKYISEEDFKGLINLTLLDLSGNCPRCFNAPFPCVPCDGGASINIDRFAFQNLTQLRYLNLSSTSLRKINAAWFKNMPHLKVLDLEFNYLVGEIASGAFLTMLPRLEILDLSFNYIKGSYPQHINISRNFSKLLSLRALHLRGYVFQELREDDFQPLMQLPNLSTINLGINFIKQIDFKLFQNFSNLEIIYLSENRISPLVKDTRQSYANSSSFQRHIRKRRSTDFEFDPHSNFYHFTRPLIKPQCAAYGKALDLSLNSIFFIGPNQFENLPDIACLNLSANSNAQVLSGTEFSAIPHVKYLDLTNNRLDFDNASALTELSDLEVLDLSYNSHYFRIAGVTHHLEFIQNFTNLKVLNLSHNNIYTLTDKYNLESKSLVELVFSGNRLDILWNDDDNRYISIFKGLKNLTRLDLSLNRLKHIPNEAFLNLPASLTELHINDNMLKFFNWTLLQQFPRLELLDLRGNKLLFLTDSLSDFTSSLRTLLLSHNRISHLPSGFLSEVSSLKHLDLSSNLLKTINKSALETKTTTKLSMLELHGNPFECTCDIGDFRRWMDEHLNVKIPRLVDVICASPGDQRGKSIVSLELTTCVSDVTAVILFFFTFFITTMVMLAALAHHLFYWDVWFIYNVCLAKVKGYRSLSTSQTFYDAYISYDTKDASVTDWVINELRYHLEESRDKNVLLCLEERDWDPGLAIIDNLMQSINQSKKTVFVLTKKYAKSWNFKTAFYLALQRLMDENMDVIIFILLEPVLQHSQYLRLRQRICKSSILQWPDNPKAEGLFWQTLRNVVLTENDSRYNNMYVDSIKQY
# test: HEK293-Blue-hTLR-8 cells assay
# condition_details: HEK293-Blue-hTLR8 cells, R848 stimulation, 20 hrs; read-out: HEK/hTLR8 IC50
pIC50: −log10 of the molar value.
Label rule, in plain words: pIC50 of 8 and up is Satisfied, under 8 is Not satisfied.

# compound, label
data = [
    ("Cc1cc(N2CCC(c3ncc(N4CCNCC4)cc3C)[C@H](C)C2)c2cnn(C)c2n1 (single isomer, unassigned) [Example 24]", "Satisfied"),
    ("CCc1cc(N2CCNCC2)cnc1C1CCN(c2cc(C)nc3c2cnn3C)CC1", "Not satisfied"),
    ("Cc1cc(N2CCC(c3cc(C)c(N4CCNCC4)cn3)CC2)c2cnn(C)c2n1", "Not satisfied"),
    ("Cc1cc(N2CC[C@@H](c3ncc(N4C[C@H]5NCCO[C@@H]5C4)cc3C)[C@H](C)C2)c2cnn(C)c2n1", "Satisfied"),
    ("CO[C@@H]1CN(c2ccc([C@H]3CCN(c4cc(C)nc5c4cnn5C)C[C@@H]3C)nc2)C[C@H]1N", "Not satisfied"),
]

###

# IC50 listing for each entry below
# system_under_test: TLR9 (Homo sapiens)
# Sequence (Q9NR96 26-1032): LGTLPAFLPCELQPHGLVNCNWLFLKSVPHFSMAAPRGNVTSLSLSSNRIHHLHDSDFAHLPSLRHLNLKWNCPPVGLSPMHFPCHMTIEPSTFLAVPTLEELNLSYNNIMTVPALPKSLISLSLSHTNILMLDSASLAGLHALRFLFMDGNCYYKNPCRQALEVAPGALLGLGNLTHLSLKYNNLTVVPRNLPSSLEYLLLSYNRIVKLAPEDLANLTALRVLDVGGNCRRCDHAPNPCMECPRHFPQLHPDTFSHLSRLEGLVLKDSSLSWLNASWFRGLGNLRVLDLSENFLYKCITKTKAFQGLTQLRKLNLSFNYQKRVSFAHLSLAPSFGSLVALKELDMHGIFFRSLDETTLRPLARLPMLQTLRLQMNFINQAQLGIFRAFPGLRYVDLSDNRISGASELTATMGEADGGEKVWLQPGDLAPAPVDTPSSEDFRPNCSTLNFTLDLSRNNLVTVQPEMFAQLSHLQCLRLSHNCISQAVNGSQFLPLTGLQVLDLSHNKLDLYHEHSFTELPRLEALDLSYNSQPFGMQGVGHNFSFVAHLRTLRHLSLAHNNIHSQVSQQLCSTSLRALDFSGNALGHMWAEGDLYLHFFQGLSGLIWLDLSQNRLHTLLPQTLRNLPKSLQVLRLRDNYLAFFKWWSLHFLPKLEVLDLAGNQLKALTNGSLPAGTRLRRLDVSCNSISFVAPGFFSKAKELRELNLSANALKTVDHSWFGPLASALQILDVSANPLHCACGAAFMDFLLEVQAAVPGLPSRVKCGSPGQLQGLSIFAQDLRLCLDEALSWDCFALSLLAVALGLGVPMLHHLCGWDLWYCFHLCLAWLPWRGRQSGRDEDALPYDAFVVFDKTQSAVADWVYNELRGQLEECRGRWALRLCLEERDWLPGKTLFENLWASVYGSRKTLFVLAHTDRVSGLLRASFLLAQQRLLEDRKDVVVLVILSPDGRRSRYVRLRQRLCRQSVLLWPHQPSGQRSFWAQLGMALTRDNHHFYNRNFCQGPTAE
# test: HEK293-Blue-hTLR-9 cells assay
# Format: cell-based
# Set-up: host or cells: HEK293 (HEK-Blue hTLR9)
# condition_details: HEK293-Blue-hTLR9 cells, ODN2006 stimulation, 20 hrs; read-out: HEK/hTLR9 IC50
# Protocol: A stable HEK293-Blue-hTLR-9 cell line was purchased from InvivoGen (Cat. #: hkb-htlr9, San Diego, California, USA). These cells were originally designed for studying the stimulation of human TLR9 by monitoring the activation of NF-κB. […] The cell culture supernatant SEAP reporter activity was determined using QiANTI-Blue™ kit (Cat. #: rep-qbl, Invivogen, San Diego, California, USA) at a wavelength of 640 nm, a detection medium that turns purple or blue in the presence of alkaline phosphatase. […]

# smiles_repr, IC50
measured = [
    ("Cc1cc(N2CCC(c3ccc(N4CCNCC4)cn3)CC2)c2cnn(C)c2n1", "0.142 µM"),
    ("Cc1cc(N2CCC(c3cnc(N4CCNCC4)nc3C)CC2)c2cnn(C)c2n1", "0.104 µM"),
    ("Cc1cc(N2CC[C@@H](c3ccc(N4CCNCC4)cn3)[C@H](C)C2)c2cnn(C)c2n1", "0.165 µM"),
    ("CO[C@H]1CN(c2cnc(C3CCN(c4cc(C)nc5c4cnn5C)CC3)c(C)c2)CC[C@@H]1N", "0.073 µM"),
]
